- TESTED_ON: human iNKT‐cell TCR (Homo sapiens, UniProt A0A0B4J240+P15813)
- Sequence (P01848 1-93): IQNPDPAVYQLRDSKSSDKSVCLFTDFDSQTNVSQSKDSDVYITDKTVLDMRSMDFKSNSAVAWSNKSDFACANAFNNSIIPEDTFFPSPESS
- Sequence (P61769 21-119, further chain): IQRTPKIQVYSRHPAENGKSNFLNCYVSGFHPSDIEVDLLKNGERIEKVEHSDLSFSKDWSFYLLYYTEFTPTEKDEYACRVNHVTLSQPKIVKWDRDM
- Sequence (A0A0B4J240 22-114): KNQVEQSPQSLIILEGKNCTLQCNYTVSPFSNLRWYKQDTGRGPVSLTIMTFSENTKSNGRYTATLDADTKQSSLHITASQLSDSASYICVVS
- Sequence (P01850 1-129, further chain): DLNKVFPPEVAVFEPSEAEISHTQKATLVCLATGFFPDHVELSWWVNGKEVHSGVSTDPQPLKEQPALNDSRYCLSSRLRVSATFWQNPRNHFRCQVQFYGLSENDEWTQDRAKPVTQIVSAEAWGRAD
- Sequence (P15813 20-301): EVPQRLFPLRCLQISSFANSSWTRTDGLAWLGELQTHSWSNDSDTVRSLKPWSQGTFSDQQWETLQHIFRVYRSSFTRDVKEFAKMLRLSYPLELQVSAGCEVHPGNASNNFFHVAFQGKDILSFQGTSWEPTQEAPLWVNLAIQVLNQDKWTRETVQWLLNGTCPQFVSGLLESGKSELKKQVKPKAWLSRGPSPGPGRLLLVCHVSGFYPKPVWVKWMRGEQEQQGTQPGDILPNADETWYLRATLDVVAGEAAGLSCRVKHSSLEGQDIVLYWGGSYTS
- TEST_METHOD_NOTES: SPR (BIAcore) binding of soluble human iNKT‐cell TCR to hCD1d/lipid complexes
- APPLIED_CONDITIONS: SPR kinetics experiment; read-out: k off, human iNKT‐cell TCR from hCD1d/lipid complex
- Description: Two analogs of ThrCer, ThrCer 6, and ThrCer 7 were synthesized. […] We first carried out measurements to assess the binding affinity of these ThrCer analogs to human iNKT‐cell TCR (Fig. 1B). Recombinant human CD1d (hCD1d) molecules were refolded in vitro with ThrCer 6 and ThrCer 7 separately and coupled to BIAcore chips, over which refolded human iNKT‐cell TCR was injected at different concentrations 34. […]
I'd be grateful if you could share measured koff for these entries.
Give bare numbers, in s⁻¹.

# MOLECULE, koff (s⁻¹)
measured = [
    ("CCCCCCCCCCCCCCCCCCCCCCCCCC(=O)N[C@@H](CO[C@H]1CC[C@H](O)[C@H](O)[C@H]1O)[C@H](O)[C@H](O)CCCCCCCCCCCCCC [ThrCer 6]", 0.165),
    ("CCCCCCCCCCCCCCCCCCCCCCCCCC(=O)N[C@@H](COC[C@H](O)[C@@H](O)CO)[C@H](O)[C@H](O)CCCCCCCCCCCCCC [ThrCer, threitolceramide, reference compound]", 0.114),
    ("CCCCCCCCCCCCCCCCCCCCCCCCCC(=O)N[C@@H](CO[C@H]1O[C@H](CO)[C@H](O)[C@H](O)[C@H]1O)[C@H](O)[C@H](O)CCCCCCCCCCCCCC [α‐GalCer, α‐galactosylceramide, reference compound]", 0.41),
]

Below: the item to evaluate.
Task: What value of koff has been recorded for this entry: CCCCCCCCCCCCCCCCCCCCCCCCCC(=O)NC(COC1CCCC(O)C(O)C1O)C(O)C(O)CCCCCCCCCCCCCC (stereo not shown) [ThrCer 7]
Output: 0.142
